The following binders are listed with their measured interaction score values.
Molecular target: T1, 4H3631-bH
T1 chain: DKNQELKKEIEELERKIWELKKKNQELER
Test: two-hybrid library CCNG1;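 further: natural log of median RNA to DNA barcode read ratio; higher means stronger binding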

{"BINDER": "DENQELKKEIEELKRENWELKKKIQELER [4H1629-bH]", "interaction score": -0.299}
{"BINDER": "DENQELEKKNEELERKIWELKKEIQELER [4H1449-bH]", "interaction score": 0.733}
{"BINDER": "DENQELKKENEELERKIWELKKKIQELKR [4H1710-bH]", "interaction score": 0.643}
{"BINDER": "DENQELEKKIEELKREIWELKKKNQELER [4H1359-bH]", "interaction score": 0.884}
{"BINDER": "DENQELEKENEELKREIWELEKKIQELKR [4H1222-bH]", "interaction score": 0.426}
{"BINDER": "DKNQELEKKIEELKRENWELEKKIQELKR [4H3414-bH]", "interaction score": 0.689}
